Data provenance: ChEMBL document CHEMBL1143050

- method summary: Permeability coefficient through artificial membrane in presence of unstirred water layer by PAMPA
Residues, ends and D or L forms follow the SMILES beside them.
Would you mind telling me the reported LogP app of each entry?
Provide a numeric answer; units are not to be included.

Which measured LogP app value corresponds to CC(C)NCC(O)COc1cccc2[nH]ccc12 (centres undefined) [PINDOLOL] ?
-5.31

Which measured LogP app value corresponds to Nc1ccccc1 [ANILINE] ?
-4.12

Which measured LogP app value corresponds to CCOC(=O)c1ccccc1C(=O)OCC [DIETHYL PHTHALATE] ?
-4.82

Which measured LogP app value corresponds to CCc1ccc(C(=O)NN(C(=O)c2cc(C)cc(C)c2)C(C)(C)C)cc1 [TEBUFENOZIDE] ?
-4.8

Which measured LogP app value corresponds to O=[N+]([O-])c1cc(Cl)ccc1Cl ?
-5.11

Which measured LogP app value corresponds to OCCc1c[nH]c2ccccc12 [TRYPTOPHOL] ?
-4.72

Which measured LogP app value corresponds to CN1CCN(CC(=O)N2c3ccccc3C(=O)Nc3cccnc32)CC1 [PIRENZEPINE] ?
-6.05

Which measured LogP app value corresponds to CC(=O)N[C@H](Cc1c[nH]c2ccccc12)C(=O)N[C@H](C(N)=O)C(C)C ?
-6.14

Which measured LogP app value corresponds to Oc1ccccc1 [PHENOL] ?
-4.33

Which measured LogP app value corresponds to CC(C)[C@H](NC(=O)[C@H](C)NC(=O)[C@@H](N)Cc1c[nH]c2ccccc12)C(N)=O (H-Trp-Ala-Val-NH2) ?
-6.62

Which measured LogP app value corresponds to CC(C)OP(=O)(OC(C)C)SCc1ccccc1 [IPROBENFOS] ?
-4.93

Which measured LogP app value corresponds to CC(=O)N[C@@H](Cc1c[nH]c2ccccc12)C(=O)N[C@H](C(N)=O)C(C)C ?
-6.18

Which measured LogP app value corresponds to CCC(C)c1ccccc1OC(=O)NC (centres undefined) [FENOBUCARB] ?
-4.91

Which measured LogP app value corresponds to NCC(=O)N[C@@H](Cc1c[nH]c2ccccc12)C(N)=O (H-Gly-Trp-NH2) ?
-6.38

Which measured LogP app value corresponds to Nc1cccc([N+](=O)[O-])c1 [3-NITROANILINE] ?
-4.67

Which measured LogP app value corresponds to CC(=O)N[C@@H](Cc1ccc(O)cc1)C(=O)N[C@@H](CC(C)C)C(N)=O (Ac-Tyr-Leu-NH2) ?
-6.54

Which measured LogP app value corresponds to O=C1N[C@@H](Cc2c[nH]c3ccccc23)C(=O)N[C@H]1Cc1c[nH]c2ccccc12 ?
-5.04

Which measured LogP app value corresponds to COc1ccc([C@@H]2Sc3ccccc3N(CCN(C)C)C(=O)[C@@H]2OC(C)=O)cc1 [DILTIAZEM] ?
-4.64

Which measured LogP app value corresponds to CC(C)(C)N(NC(=O)c1ccc(Cl)cc1)C(=O)c1ccccc1 [HALOFENOZIDE] ?
-4.76

Which measured LogP app value corresponds to Cn1c(=O)c2[nH]cnc2n(C)c1=O.O [THEOPHYLLINE] ?
-5.31

Which measured LogP app value corresponds to Nc1ccccc1Cl ?
-4.48

Which measured LogP app value corresponds to Oc1ccccc1Cl [2-CHLOROPHENOL] ?
-4.3

Which measured LogP app value corresponds to Nc1ccccc1[N+](=O)[O-] [2-NITROANILINE] ?
-4.54

Which measured LogP app value corresponds to CC(=O)Nc1ccc(OCC(O)CNC(C)C)cc1 (centres undefined) [PRACTOLOL] ?
-5.98

Which measured LogP app value corresponds to Oc1ccc(O)cc1 [HYDROQUINONE] ?
-5.14

Which measured LogP app value corresponds to CC(C)(C)NCC(O)COc1cccc2c1C[C@H](O)[C@H](O)C2 (some centres undefined) [NADOLOL] ?
-6.15

Which measured LogP app value corresponds to c1ccc(-c2ccccc2)cc1 [BIPHENYL] ?
-5.95

Which measured LogP app value corresponds to O=[N+]([O-])c1cccc(O)c1 [3-NITRO-PHENOL] ?
-4.77

Which measured LogP app value corresponds to O=C(O)c1c[nH]c2ccccc12 ?
-6.1

Which measured LogP app value corresponds to O=C1CNC(=O)[C@H](Cc2c[nH]c3ccccc23)N1 ?
-6.02

Which measured LogP app value corresponds to COC(=O)c1ccccc1C(=O)OC [DIMETHYL PHTHALATE] ?
-4.36

Which measured LogP app value corresponds to CCOP(=S)(OCC)Oc1cc(C)nc(C(C)C)n1 [DIMPYLATE] ?
-5.28

Which measured LogP app value corresponds to O=C(O)Cc1c[nH]c2ccccc12 [INDOLE-3-ACETIC ACID] ?
-6.4

Which measured LogP app value corresponds to N#Cc1ccc(O)cc1 [4-CYANOPHENOL] ?
-4.77

Which measured LogP app value corresponds to Cc1cc(=O)n(-c2ccccc2)n1C [ANTIPYRINE] ?
-5.54

Which measured LogP app value corresponds to Clc1cccc(Cl)c1N=C1NCCN1 [CLONIDINE] ?
-4.98

Which measured LogP app value corresponds to CC(=O)Nc1ccc(O)cc1 [ACETAMINOPHEN] ?
-6.04

Which measured LogP app value corresponds to O=C(O)CCc1c[nH]c2ccccc12 [INDOLYLPROPIONIC ACID] ?
-5.68

Which measured LogP app value corresponds to CCn1cc(C(=O)O)c(=O)c2cc(F)c(N3CCNCC3)cc21 [NORFLOXACIN] ?
-6.71

Which measured LogP app value corresponds to NC(=O)[C@H](Cc1c[nH]c2ccccc12)NC(=O)[C@@H](N)Cc1ccccc1 (H-Phe-Trp-NH2) ?
-5.22

Which measured LogP app value corresponds to CC(C)(C)N(NC(=O)c1ccccc1)C(=O)c1ccccc1 [RH-5849] ?
-4.78

Which measured LogP app value corresponds to COc1cccc(C(=O)NN(C(=O)c2cc(C)cc(C)c2)C(C)(C)C)c1C [METHOXYFENOZIDE] ?
-4.72

Which measured LogP app value corresponds to CCNc1nc(Cl)nc(NC(C)C)n1 [ATRAZINE] ?
-4.53

Which measured LogP app value corresponds to COP1(=S)OCc2ccccc2O1 (centres undefined) [SALITHION] ?
-5.03
